Target: T1, Human SIRPαV1 (NP_542970.1), Extracellular Domain + His-Tag (human, UniProt P78324 31-373)
T1 construct: also called huSIRPαV1; hSIRPαV1; not shown: His-Tag
T1 sequence (P78324 other isoform, or with tags, fused parts or gaps): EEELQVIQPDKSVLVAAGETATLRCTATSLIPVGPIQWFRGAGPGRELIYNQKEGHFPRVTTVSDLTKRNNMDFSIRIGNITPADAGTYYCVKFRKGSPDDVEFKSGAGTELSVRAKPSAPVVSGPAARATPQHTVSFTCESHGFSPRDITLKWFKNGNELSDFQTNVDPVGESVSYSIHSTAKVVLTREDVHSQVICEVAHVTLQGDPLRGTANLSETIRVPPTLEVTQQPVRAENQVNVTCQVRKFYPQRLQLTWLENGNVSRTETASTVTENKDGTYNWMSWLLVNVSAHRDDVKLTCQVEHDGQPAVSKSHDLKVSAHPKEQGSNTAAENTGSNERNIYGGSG
Test: SPR, antibody captured on Protein A/G, ECD-His analyte, 1:1 fit
MEASURED METRIC: kon (M⁻¹ s⁻¹)
Write it as a number; the unit M⁻¹ s⁻¹ goes unstated.

## Task Fill in: kon of Antibody E5 (antibody, human IgG1, kappa, L234A L235A, V domains shown) VH: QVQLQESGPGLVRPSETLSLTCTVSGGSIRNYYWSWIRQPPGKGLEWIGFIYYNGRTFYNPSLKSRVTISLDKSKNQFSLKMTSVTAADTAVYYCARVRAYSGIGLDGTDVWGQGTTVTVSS VL: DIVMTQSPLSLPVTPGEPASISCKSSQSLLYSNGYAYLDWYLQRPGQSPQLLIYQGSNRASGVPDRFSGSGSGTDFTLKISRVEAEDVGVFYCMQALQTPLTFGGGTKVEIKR is ___
## Result 331000

## Task Also, Antibody E4 (antibody, human IgG1, kappa, L234A L235A, V domains shown) VH: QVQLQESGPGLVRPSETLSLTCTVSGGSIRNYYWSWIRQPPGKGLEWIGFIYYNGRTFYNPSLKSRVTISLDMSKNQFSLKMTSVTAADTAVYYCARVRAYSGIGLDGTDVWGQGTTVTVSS VL: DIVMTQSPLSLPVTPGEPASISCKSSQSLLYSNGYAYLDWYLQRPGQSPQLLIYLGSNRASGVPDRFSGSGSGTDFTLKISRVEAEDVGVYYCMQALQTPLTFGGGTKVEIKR please.
## Result 438000

## Task Also, Antibody E1 (antibody, human IgG1, kappa, L234A L235A, V domains shown) VH: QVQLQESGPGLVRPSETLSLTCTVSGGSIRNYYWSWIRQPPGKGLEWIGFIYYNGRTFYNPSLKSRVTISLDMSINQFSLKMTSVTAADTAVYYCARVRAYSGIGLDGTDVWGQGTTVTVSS VL: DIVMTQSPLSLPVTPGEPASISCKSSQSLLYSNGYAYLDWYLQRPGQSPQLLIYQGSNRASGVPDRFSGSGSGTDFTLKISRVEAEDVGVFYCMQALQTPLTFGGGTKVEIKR please.
## Result 414000

Where these numbers come from: patent US20230012273A1
